Tested on: Monographella nivalis (syn. Microdochium nivale, Fusarium nivale)
Assay: Monographella nivalis (snow mould, foot rot of cereals), PDB microtiter plate, visual after 72 hrs
Type: cell-based
Conditions: Monographella nivalis, applied alone, 0.125 ppm
METRIC: inhibition at 0.125 ppm (%)
Give the value, in units of %, as a plain number.

Below, each entry is followed by its recorded inhibition at 0.125 ppm result.
CCCC1COC(Cn2cncn2)(c2ccc(Cl)cc2Cl)O1 (stereo not drawn) [Propiconazole] :: 0
N#Cc1c(Cl)c(Cl)c(Cl)c(C#N)c1Cl [Chlorothalonil] :: 70
CCN(C)/C=N/c1cc(Br)c(OC(C)c2cc(F)cc(F)c2)nc1C (stereo not drawn) [Q.113] :: 0
CC1(C)CCC(Cc2ccc(Cl)cc2)C1(O)Cn1cncn1 (stereo not drawn) [Metconazole] :: 0
OC(Cn1cncn1)(c1ccc(F)cc1)c1ccccc1F (stereo not drawn) [Flutriafol] :: 0

Would you kindly look at the next entry?
[ask] Specify inhibition at 0.125 ppm for Cn1cc(C(=O)Nc2cccc3c2C2CCC3C2=C(Cl)Cl)c(C(F)F)n1 (stereo not drawn) [(V), reference compound] , system Monographella nivalis (syn. Microdochium nivale, Fusarium nivale).
[reply] 70

----------
METRIC: melting point

[ask] Please give measured melting point of the following entry: CCN(C)/C=N/c1cc(Br)c(OCCc2ccc(F)cc2)nc1C
[reply] 46 to 48 °C

----------
The molecules listed here are annotated with their Activity.
Test system: Septoria tritici
Test: Septoria tritici on wheat, preventive treatment
Type: in vivo
Settings: solo, 1 g a.i./ha; wheat Riband, 1 day preventive, 18 days after application
Give just the numeric value; % need not be written.

Here's what some known entries look like.
CCN(C)/C=N/c1cc(Br)c(OC2Cc3ccccc3C2)nc1C [Q.062] :: 2
CCN(C)/C=N/c1cc(Br)c(OC(C)c2cc(F)cc(F)c2)nc1C (centres unmarked) [Q.113] :: 1
CCN(C)/C=N/c1cc(Br)c(O[C@H]2CC[C@@H](C(C)C)CC2)nc1C [Q.135] :: 0
CC1COC(Cn2cncn2)(c2ccc(Oc3ccc(Cl)cc3)cc2Cl)O1 (centres unmarked) [Difenoconazole] :: 0

Okay, now this molecule:
[ask] Write down Activity measured for item CCN(C)/C=N/c1cc(Br)c(OCc2ccccc2C)nc1C [Q.151]
[reply] 0

----------
METRIC: melting point

Here is how some compounds turned out for melting point.
CCN(C)/C=N/c1cc(Br)c(OCc2cc(C)ns2)nc1C [Q.235] :: 55 to 57 °C
C#Cc1cccc(COc2nc(C)c(/N=C/N(C)CC)cc2Br)c1 [Q.195] :: 52 to 54 °C
CCN(C)/C=N/c1cc(Br)c(OCc2ccnc(Cl)c2)nc1C [Q.111] :: 57 to 59 °C
CCN(C)/C=N/c1cc(Br)c(OCc2c(F)cccc2F)nc1C [Q.326] :: 61 to 62 °C
CCN(C)/C=N/c1cc(Br)c(OC(C)c2ccccc2-c2ccccc2)nc1C (stereo not shown) [Q.295] :: 59 to 62 °C
CCN(C)/C=N/c1cc(Br)c(OCc2c(C)cccc2C)nc1C [Q.325] :: 56 to 57 °C
CCN(C)/C=N/c1cc(Br)c(OCCc2cc(C)cc(C)c2)nc1C [Q.422] :: 61 to 63 °C
CCN(C)/C=N/c1cc(Br)c(OCc2cc(C)cc(C)c2)nc1C [Q.207] :: 57 to 58 °C
CCN(C)/C=N/c1cc(Br)c(OCc2cccc(C)c2)nc1C [Q.128] :: 60 to 62 °C

Consider the record given below.
[ask] Kindly indicate its recorded melting point. Item: CCN(C)/C=N/c1cc(Br)c(OCc2cccc(F)c2C)nc1C [Q.322]
[reply] 67 to 68 °C
